Assay: GSK_TCMDC: Inhibition Frequency Index (IFI). The number of non-kinase HTS assays where a compound showed > 50 % inhibition, expressed as a percentage of the number of such assays in which the compound was tested
Assay type: functional
Over roughly 13,000 compounds, “IFI” has its median near 4; the highest 2% begin near 17. Many of the other results were omitted from the sample, so the highest values are more common in it than they were.
Result Type: IFI (%)
Enter your answer as a number in %; do not include the unit.

Look over these answered cases.
{"columns": ["Compound", "Unit Annotation", "IFI"],
 "data": [
  ["FC(F)(F)c1ccccc1OCc1cc(-c2ccncc2)c(COc2ccccc2C(F)(F)F)cc1C1=CCNCC1", "%", 10.6],
  ["O=C(/C=C/c1ccc(Cl)c(Cl)c1)NCCCCCN1CCCC(CNC(=O)Nc2ccc(C(F)(F)F)cc2)C1 (stereo not drawn)", "%", 17.7],
  ["O=C(/C=C/c1ccccc1Cl)Nc1ccc(Br)c(OCCN2CCCCC2)c1", "%", 5.52],
  ["O=C(/C=C/c1ccc(C(F)(F)F)cc1)NCCCCCN1CCN(C(=O)Nc2ccc(Cl)c(Cl)c2)CC1", "%", 13.7]
]}

Next:
Q: # lookup: IFI of Oc1ccc(-c2cc(COc3ccccc3C(F)(F)F)c(C3=CCNCC3)cc2COc2ccccc2C(F)(F)F)cc1
Ans: 17.3
